The measurements presented in this section are drawn from the Immune Epitope Database (IEDB).

Biological target: HLA-A*23:01
Test: IEDB peptide-MHC binding, purified MHC/direct/fluorescence; filed as Kd, often an IC50 or EC50 that approximates it; bounds were set here for any values at or beyond the usual limits of such assays
Settings: source organism: Orthohantavirus andesense
pKd: −log10 of the molar value.
Observed Property: pKd

Entry EVLKAMSLY ; pKd = ≤ 4.70

---

Target: HLA-A*02:03
Assay: IEDB peptide-MHC binding, purified MHC/competitive/radioactivity; filed as Kd, often an IC50 or EC50 that approximates it; bounds were set here for any values at or beyond the usual limits of such assays
Settings: source organism: Hepacivirus hominis
Observed Property: Kd

Entry HSKKKCDDL ; Kd = ≥ 70.4 µM

---

Molecular target: HLA-B*27:03
Experiment: IEDB peptide-MHC binding, purified MHC/competitive/fluorescence; filed as Kd, often an IC50 or EC50 that approximates it; bounds were set here for any values at or beyond the usual limits of such assays
Settings: source organism: Streptococcus pneumoniae TIGR4
Observed Property: Kd

Entry YQVEGATRV ; Kd = ≥ 20 µM

---

Molecular target: HLA-A*25:01
Experiment: IEDB peptide-MHC binding, purified MHC/competitive/fluorescence; filed as Kd, often an IC50 or EC50 that approximates it; bounds were set here for any values at or beyond the usual limits of such assays
Settings: source organism: Xanthobacter autotrophicus Py2
Observed Property: Kd

Form field, Kd with HLA-A*25:01, item GQMYNMNTL : ≥ 20 µM

---

Target: HLA-A*29:02
Experiment: IEDB peptide-MHC binding, purified MHC/direct/fluorescence; filed as Kd, often an IC50 or EC50 that approximates it; bounds were set here for any values at or beyond the usual limits of such assays
Conditions: source organism: Mycobacterium tuberculosis variant bovis BCG str. Pasteur 1173P2
pKd: −log10 of the molar value.
Observed Property: pKd

Form field, pKd with HLA-A*29:02, item HPTSRRELL : ≤ 4.70

---

Target: HLA-B*14:02
Assay: IEDB peptide-MHC binding, purified MHC/competitive/fluorescence; filed as Kd, often an IC50 or EC50 that approximates it; bounds were set here for any values at or beyond the usual limits of such assays
Details: source organism: Listeria monocytogenes J0161
pKd: −log10 of the molar value.
Observed Property: pKd

Entry AALEGLSGF ; pKd = ≤ 5.30

---

Biological target: HLA-B*57:01
Experiment: IEDB peptide-MHC binding, purified MHC/competitive/fluorescence; filed as Kd, often an IC50 or EC50 that approximates it; bounds were set here for any values at or beyond the usual limits of such assays
Details: source organism: Xanthobacter autotrophicus Py2
Observed Property: Kd

Entry GQMYNMNTL ; Kd = ≥ 20 µM

---

Target: HLA-B*40:01
Assay: IEDB peptide-MHC binding, purified MHC/direct/fluorescence; filed as Kd, often an IC50 or EC50 that approximates it; bounds were set here for any values at or beyond the usual limits of such assays
Conditions: source organism: dengue virus type 3
pKd: −log10 of the molar value.
Observed Property: pKd

Entry TSEHGGRAY ; pKd = ≤ 4.70

---

Target: HLA-A*33:01
Assay: IEDB peptide-MHC binding, purified MHC/competitive/radioactivity; filed as Kd, often an IC50 or EC50 that approximates it; bounds were set here for any values at or beyond the usual limits of such assays
Settings: source organism: Mammarenavirus brazilense
Observed Property: Kd
Number plus unit, in that order.

Entry FKVAFSKHYK ; Kd = 3.19 µM

---

Biological target: HLA-A*26:01
Assay: IEDB peptide-MHC binding, purified MHC/competitive/radioactivity; filed as Kd, often an IC50 or EC50 that approximates it; bounds were set here for any values at or beyond the usual limits of such assays
Details: source organism: Dengue virus 4 Philippines/H241/1956
Observed Property: pKd
// pKd here means minus log10 of the molar concentration (mol/L)

MTAGIFLFFM 7.80

Entry EVKQDEDGSF ; pKd = 7.16

---

Target: HLA-B*58:01
Test: IEDB peptide-MHC binding, purified MHC/direct/fluorescence; filed as Kd, often an IC50 or EC50 that approximates it; bounds were set here for any values at or beyond the usual limits of such assays
Settings: source organism: Salmonella enterica subsp. enterica serovar Typhimurium
Observed Property: Kd (µM)
Express it in µM; write the number only.

Entry TTHHTIPLL ; Kd = 3.24

---

Biological target: HLA-A*03:01
Test: IEDB peptide-MHC binding, purified MHC/competitive/fluorescence; filed as Kd, often an IC50 or EC50 that approximates it; bounds were set here for any values at or beyond the usual limits of such assays
Details: source organism: Rickettsia sibirica 246
Observed Property: Kd (nM)
Express it in nM; write the number only.

Entry LLANILSEK ; Kd = 7.8

---

Molecular target: HLA-B*15:01
Assay: IEDB peptide-MHC binding, purified MHC/direct/fluorescence; filed as Kd, often an IC50 or EC50 that approximates it; bounds were set here for any values at or beyond the usual limits of such assays
Conditions: source organism: Influenza A virus (A/Viet Nam/HN/2004(H5N1))
pKd: −log10 of the molar value.
Observed Property: pKd

Entry RNEQGQTLW ; pKd = ≤ 4.70

---

Target: HLA-A*02:16
Assay: IEDB peptide-MHC binding, purified MHC/direct/fluorescence; filed as Kd, often an IC50 or EC50 that approximates it; bounds were set here for any values at or beyond the usual limits of such assays
Conditions: source organism: Vibrio vulnificus CMCP6
Observed Property: Kd
Number plus unit, in that order.

Entry QLAFTYCQV ; Kd = 21 nM

---

Target: HLA-C*15:02
Test: IEDB peptide-MHC binding, purified MHC/direct/fluorescence; filed as Kd, often an IC50 or EC50 that approximates it; bounds were set here for any values at or beyond the usual limits of such assays
Conditions: source organism: Rickettsia massiliae MTU5
Observed Property: Kd

Entry FMRFAFLSM ; Kd = ≥ 20 µM

---

Molecular target: HLA-B*38:01
Assay: IEDB peptide-MHC binding, purified MHC/direct/fluorescence; filed as Kd, often an IC50 or EC50 that approximates it; bounds were set here for any values at or beyond the usual limits of such assays
Conditions: source organism: Mycobacterium tuberculosis str. Haarlem
Observed Property: Kd

Entry RPRLWRSVI ; Kd = ≥ 20 µM

---

Molecular target: HLA-B*40:01
Assay: IEDB peptide-MHC binding, purified MHC/competitive/radioactivity; filed as Kd, often an IC50 or EC50 that approximates it; bounds were set here for any values at or beyond the usual limits of such assays
Conditions: source organism: Dengue virus 4 Philippines/H241/1956
Observed Property: pKd
// pKd here means minus log10 of the molar concentration (mol/L)

EEYKRSGIL 7.03

Please find the next sequence below.
Entry TEDDLLNEEL ; pKd = 7.40

---

In this section we review reported IC50 values for a set of sequences.
Molecular target: HLA-A*24:02
Assay: IEDB peptide-MHC binding, purified MHC/competitive/fluorescence; bounds were set here for any values at or beyond the usual limits of such assays
Conditions: source organism: Zaire ebolavirus
Express it in µM; write the number only.

Check out these entries, answers already filled in.
KDFFSSHPL 55.1
VNNLEHGLF 25.4
TTEANAGQF 22
GQFLSFASL 19.5

Entry FEEMYRHIL ; IC50 = 25.8

Entry HAYQGDYKL ; IC50 = 20.9

Entry FQRTFSIPL ; IC50 = 47

Entry YQVNNLEEI ; IC50 = 1.66

---

Target: HLA-B*39:01
Test: IEDB peptide-MHC binding, purified MHC/competitive/fluorescence; filed as Kd, often an IC50 or EC50 that approximates it; bounds were set here for any values at or beyond the usual limits of such assays
Conditions: source organism: West Nile virus
Observed Property: Kd (nM)
Express it in nM; write the number only.

Form field, Kd with HLA-B*39:01, item VHREWFMDL : 1480

---

Target: HLA-A*02:01
Assay: IEDB peptide-MHC binding, purified MHC/direct/fluorescence; filed as Kd, often an IC50 or EC50 that approximates it; bounds were set here for any values at or beyond the usual limits of such assays
Details: source organism: Camelpox virus CMS
Observed Property: Kd

Form field, Kd with HLA-A*02:01, item LMDENTYAM : ≤ 1 nM

---

Target: HLA-B*48:01
Assay: IEDB peptide-MHC binding, purified MHC/direct/fluorescence; filed as Kd, often an IC50 or EC50 that approximates it; bounds were set here for any values at or beyond the usual limits of such assays
Conditions: source organism: Burkholderia mallei
pKd: −log10 of the molar value.
Observed Property: pKd

Entry EPFSRRHPL ; pKd = ≤ 4.70

---

In this section we review reported pKd values for a set of sequences.
Molecular target: HLA-B*44:02
Experiment: IEDB peptide-MHC binding, purified MHC/direct/fluorescence; filed as Kd, often an IC50 or EC50 that approximates it; bounds were set here for any values at or beyond the usual limits of such assays
Details: source organism: Reston ebolavirus - Reston
pKd: −log10 of the molar value.

FHRKKTDAL ≤ 4.70

Entry KHDFIDNPL ; pKd = ≤ 4.70
